test system: Pa PAO1; assay type: cell-based, Pseudomonas aeruginosa; conditions: PAO1
*1 amine or outer side, *2 acyl side, *3 side chain or, on linkers, in order; H or OH if unused. Where a SMILES comes first, the peptide text is derived from it. Bridges are numbered along the chain shown (N, C = ends). [ ]: non-standard residue; d: D form. The star is where a group is joined. Propargyl(OCH2CH2)4CO = C#CCOCCOCCOCCOCCC(=O)*; X3 = CCCCC[C@@H](O)[C@H](N[*:1])C(=O)[*:2]; Aoc(2) = CCCCCC[C@H](N)C(=O)O; hLeu = CC(C)CC[C@H](N)C(=O)O; X7 = NCCN(NC(=O)[*:2])[*:1]; Dab = NCC[C@H](N)C(=O)O; azaGly = NNC(=O)O
Listed below: MIC values for each entry.
Answer in µg/mL, number only, no unit symbol.

# COMPOUND, VALUE TYPE, ASSAY VALUE
data = [
    ("C#CCOCCOCCOCCOCCC(=O)N[C@@H](CCCCCC)C(=O)N[C@@H](CCN)C(=O)N[C@H](C(=O)N[C@@H](CCN)C(=O)N[C@H]1CCNC(=O)[C@H]([C@@H](C)O)NC(=O)[C@H](CCN)NC(=O)[C@H](CCN)NC(=O)[C@H](CC(C)C)NC(=O)[C@@H](Cc2ccccc2)NC(=O)[C@H](CCN)NC1=O)[C@@H](C)O [Int-17] ({Propargyl(OCH2CH2)4CO}-[Aoc(2)][Dab]T[Dab][Dab][Dab][dF]L[Dab][Dab]T; lactam 5-C)", "MIC", 4),
    ("C#CCOCCOCCOCCOCCC(=O)N[C@@H](CCC(C)C)C(=O)N[C@@H](CCN)C(=O)N[C@H](C(=O)N(CCN)NC(=O)N[C@H]1CCNC(=O)[C@H]([C@@H](C)O)NC(=O)[C@H](CCN)NC(=O)[C@H](CCN)NC(=O)[C@H](CC(C)C)NC(=O)[C@@H](Cc2ccccc2)NC(=O)[C@H](CCN)NC1=O)[C@@H](C)O [Int-126] ({Propargyl(OCH2CH2)4CO}-[hLeu][Dab]T[X7][Dab][Dab][dF]L[Dab][Dab]T; lactam 5-C)", "MIC", 2),
    ("C#CCOCCOCCOCCOCCC(=O)Nc1nc(C)c(C(=O)N[C@@H](CCCC)C(=O)C[C@@H](CCN)C(=O)N[C@H](C(=O)NC(CCCN)C(=O)N[C@H]2CCNC(=O)[C@H]([C@@H](C)O)NC(=O)[C@H](CCN)NC(=O)[C@H](CCN)NC(=O)[C@H](CC(C)C)CC(=O)[C@@H](Cc3ccccc3)NC(=O)[C@H](CCN)CC2=O)[C@@H](C)O)s1 (stereo partly shown)", "MIC", 2),
]

Query compound follows.
[ask] Given the compound C#CCOCCOCCOCCOCCC(=O)N[C@@H](CCC(C)C)C(=O)N[C@@H](CCN)C(=O)N[C@H](C(=O)NNC(=O)N[C@H]1CCNC(=O)[C@H]([C@@H](C)O)NC(=O)[C@H](CCN)NC(=O)[C@H](CCN)NC(=O)[C@H](CC(C)C)NC(=O)[C@@H](Cc2ccccc2)NC(=O)[C@H](CCN)NC1=O)[C@H](O)CCCCC [Int-116] ({Propargyl(OCH2CH2)4CO}-[hLeu][Dab][X3][azaGly][Dab][Dab][dF]L[Dab][Dab]T; lactam 5-C) , what is its reported MIC?
[reply] 4

###

test system: Sa RN; format: cell-based
*1 amine or outer side, *2 acyl side, *3 side chain or, on linkers, in order; H or OH if unused. Where a SMILES comes first, the peptide text is derived from it. Bridges are numbered along the chain shown (N, C = ends). [ ]: non-standard residue; d: D form. The star is where a group is joined. X2 = O=C([C@@H](N[*:1])[C@H](O)CCC(F)(F)F)[*:2]; Propargyl(OCH2CH2)4CO = C#CCOCCOCCOCCOCCC(=O)*; azaDab = NCCN(N[*:1])C(=O)[*:2]; Aoc(2) = CCCCCC[C@H](N)C(=O)O; hLeu = CC(C)CC[C@H](N)C(=O)O; Dab = NCC[C@H](N)C(=O)O
VALUE TYPE: MIC

// solved cases for MIC follow
# COMPOUND, TARGET ENTITY, MIC
measured = [
    ("C#CCOCCOCCOCCOCCC(=O)N[C@@H](CCCCCC)C(=O)N[C@@H](CCN)C(=O)N[C@H](C(=O)N[C@@H](CCN)C(=O)N[C@H]1CCNC(=O)[C@H]([C@@H](C)O)NC(=O)[C@H](CCN)NC(=O)[C@H](CCN)NC(=O)[C@H](CC(C)C)NC(=O)[C@@H](Cc2ccccc2)NC(=O)[C@H](CCN)NC1=O)[C@H](O)CCC(F)(F)F [Int-118] ({Propargyl(OCH2CH2)4CO}-[Aoc(2)][Dab][X2][Dab][Dab][Dab][dF]L[Dab][Dab]T; lactam 5-C)", "Sa RN", ">128 µg/mL"),
    ("C#CCOCCOCCOCCOCCC(=O)Nc1nc(C)c(C(=O)N[C@@H](CCCC)C(=O)C[C@@H](CCN)C(=O)N[C@H](C(=O)NC(CCCN)C(=O)N[C@H]2CCNC(=O)[C@H]([C@@H](C)O)NC(=O)[C@H](CCN)NC(=O)[C@H](CCN)NC(=O)[C@H](CC(C)C)CC(=O)[C@@H](Cc3ccccc3)NC(=O)[C@H](CCN)CC2=O)[C@@H](C)O)s1 (stereo partly drawn)", "Sa RN", ">128 µg/mL"),
]

Okay, next one:
[ask] Query MIC on Sa RN for C#CCOCCOCCOCCOCCC(=O)N[C@@H](CCC(C)C)C(=O)N[C@@H](CCN)C(=O)N[C@H](C(=O)NN(CCN)C(=O)N[C@H]1CCNC(=O)[C@H]([C@@H](C)O)NC(=O)[C@H](CCN)NC(=O)[C@H](CCN)NC(=O)[C@H](CC(C)C)NC(=O)[C@@H](Cc2ccccc2)NC(=O)[C@H](CCN)NC1=O)[C@@H](C)O [Int-127] ({Propargyl(OCH2CH2)4CO}-[hLeu][Dab]T[azaDab][Dab][Dab][dF]L[Dab][Dab]T; lactam 5-C)
[reply] >128 µg/mL

###

tested on: Ec 25922; type: cell-based, Escherichia coli; conditions: pH 7.4
*1 amine or outer side, *2 acyl side, *3 side chain or, on linkers, in order; H or OH if unused. Where a SMILES comes first, the peptide text is derived from it. Bridges are numbered along the chain shown (N, C = ends). [ ]: non-standard residue; d: D form. The star is where a group is joined. X2 = O=C([C@@H](N[*:1])[C@H](O)CCC(F)(F)F)[*:2]; Propargyl(OCH2CH2)4CO = C#CCOCCOCCOCCOCCC(=O)*; X1 = CCCCCC[C@@H](O)[C@H](N[*:1])C(=O)[*:2]; X3 = CCCCC[C@@H](O)[C@H](N[*:1])C(=O)[*:2]; azaDab = NCCN(N[*:1])C(=O)[*:2]; dCha = N[C@H](CC1CCCCC1)C(=O)O; Aoc(2) = CCCCCC[C@H](N)C(=O)O; hLeu = CC(C)CC[C@H](N)C(=O)O; Dab = NCC[C@H](N)C(=O)O; azaGly = NNC(=O)O
VALUE TYPE: MIC in RPMI EC 25922

# COMPOUND, VALUE TYPE, ASSAY VALUE
measured = [
    ("C#CCOCCOCCOCCOCCC(=O)N[C@@H](CCC(C)C)C(=O)N[C@@H](CCN)C(=O)N[C@H](C(=O)NNC(=O)N[C@H]1CCNC(=O)[C@H]([C@@H](C)O)NC(=O)[C@H](CCN)NC(=O)[C@H](CCN)NC(=O)[C@H](CC(C)C)NC(=O)[C@@H](Cc2ccccc2)NC(=O)[C@H](CCN)NC1=O)[C@H](O)CCCCC [Int-116] ({Propargyl(OCH2CH2)4CO}-[hLeu][Dab][X3][azaGly][Dab][Dab][dF]L[Dab][Dab]T; lactam 5-C)", "MIC in RPMI EC 25922", "1.05 µg/mL"),
]

[ask] Name the reported MIC in RPMI EC 25922 value associated with the compound C#CCOCCOCCOCCOCCC(=O)N[C@@H](CCC(C)C)C(=O)N[C@@H](CCN)C(=O)N[C@H](C(=O)NN(CCN)C(=O)N[C@H]1CCNC(=O)[C@H]([C@@H](C)O)NC(=O)[C@H](CCN)NC(=O)[C@H](CCN)NC(=O)[C@H](CC(C)C)NC(=O)[C@@H](Cc2ccccc2)NC(=O)[C@H](CCN)NC1=O)[C@@H](C)O [Int-127] ({Propargyl(OCH2CH2)4CO}-[hLeu][Dab]T[azaDab][Dab][Dab][dF]L[Dab][Dab]T; lactam 5-C)
[reply] 1.00 µg/mL

[ask] Quick one: MIC in RPMI EC 25922 for C#CCOCCOCCOCCOCCC(=O)N[C@@H](CCCCCC)C(=O)N[C@@H](CCN)C(=O)N[C@H](C(=O)N[C@@H](CCN)C(=O)N[C@H]1CCNC(=O)[C@H]([C@@H](C)O)NC(=O)[C@H](CCN)NC(=O)[C@H](CCN)NC(=O)[C@H](CC(C)C)NC(=O)[C@@H](Cc2ccccc2)NC(=O)[C@H](CCN)NC1=O)[C@H](O)CCC(F)(F)F [Int-118] ({Propargyl(OCH2CH2)4CO}-[Aoc(2)][Dab][X2][Dab][Dab][Dab][dF]L[Dab][Dab]T; lactam 5-C) ?
[reply] 0.95 µg/mL

[ask] Query (compound): C#CCOCCOCCOCCOCCC(=O)N[C@@H](CCN)C(=O)N[C@H](C(=O)NNC(=O)N[C@H]1CCNC(=O)[C@H]([C@@H](C)O)NC(=O)[C@H](CCN)NC(=O)[C@H](CCN)NC(=O)[C@H](CC(C)C)NC(=O)[C@@H](CC2CCCCC2)NC(=O)[C@H](CCN)NC1=O)[C@H](O)CCCCCC [Int-115] ({Propargyl(OCH2CH2)4CO}-[Dab][X1][azaGly][Dab][Dab][dCha]L[Dab][Dab]T; lactam 4-C) ; field requested: MIC in RPMI EC 25922
[reply] 2.23 µg/mL

[ask] Which measured MIC in RPMI EC 25922 value corresponds to C#CCOCCOCCOCCOCCC(=O)Nc1nc(C)c(C(=O)N[C@@H](CCCC)C(=O)C[C@@H](CCN)C(=O)N[C@H](C(=O)NC(CCCN)C(=O)N[C@H]2CCNC(=O)[C@H]([C@@H](C)O)NC(=O)[C@H](CCN)NC(=O)[C@H](CCN)NC(=O)[C@H](CC(C)C)CC(=O)[C@@H](Cc3ccccc3)NC(=O)[C@H](CCN)CC2=O)[C@@H](C)O)s1 (some centres unmarked) ?
[reply] 0.94 µg/mL
